procedure text: binders of probe aHhip on microarray, primary screen, stem cell growth factor project, biochemical, small-molecule microarray, fluorescence 635/667 (AID 1087);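 further: score merges spot fluorescence at 667nm with spot signal to noise ratio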
particulars: higher = more signal
Answer 0 (no) if composite z-score is under -0.2, and 1 (yes) if it is -0.2 or more.

See these solved cases before continuing.
Asked: Decide: is the reported value of composite z-score for "C=C(C(=O)CC[C@@H](OC(C)=O)c1ccccc1OCCO)C(C)C" equal to or greater than -0.2?
Given back: 1 (yes)

Asked: Decide: is the reported value of composite z-score for "COC(=O)C(CC#Cc1ccc2c(c1)[C@]1(C(=O)N2)[C@H](C(N)=O)[C@H]2C(=O)O[C@H](c3ccccc3)[C@H](c3ccccc3)N2[C@@H]1c1ccc(O)cc1)C(=O)OC" equal to or greater than -0.2?
Given back: 1 (yes)

Asked: Decide: is the reported value of composite z-score for "C=CCN1C(=O)[C@@]2(O[C@@H](CCO)[C@H]([Si](C)(C)c3ccc(OC)cc3)[C@H]2C)c2cc(N3C(=O)c4cccc5cccc3c45)ccc21" equal to or greater than -0.2?
Given back: 1 (yes)

Asked: Decide: is the reported value of composite z-score for "Cc1ccc(S[C@]2(C(=O)NCCN3CCOCC3)CC(=O)N(Cc3cc(C(F)(F)F)cc(C(F)(F)F)c3)[C@@H]2c2ccc(CO)cc2)cc1" equal to or greater than -0.2?
Given back: 1 (yes)

Asked: Decide: is the reported value of composite z-score for "CC(=O)NCCCC[C@@H]1NC(=O)[C@@H]2C[C@H](C(=O)O)[C@H](c3cccc(OCCO)c3)N2C1=O" equal to or greater than -0.2?
Given back: 1 (yes)

Asked: Decide: is the reported value of composite z-score for CC(C)N1CC=CC23O[C@@H]4/C=C\CCCOC(=O)C4[C@H]2C(=O)N(CCCO)[C@@H]3C1=O (some centres not stated) equal to or greater than -0.2?
Given back: 0 (no)

Now for another entry.
Asked: Decide: is the reported value of composite z-score for "COc1ccc(CCNC(=O)[C@@]2(Sc3ccc(C)cc3)CC(=O)N(Cc3ccccc3)[C@@H]2c2ccc(CO)cc2I)cc1" equal to or greater than -0.2?
Given back: 0 (no)
